Record form. Attribute: IC50. Fill in for each entry.
target-desc: human ADRA2C receptor (Homo sapiens (Human), UniProt P18825)
Sequence (P18825 whole entry): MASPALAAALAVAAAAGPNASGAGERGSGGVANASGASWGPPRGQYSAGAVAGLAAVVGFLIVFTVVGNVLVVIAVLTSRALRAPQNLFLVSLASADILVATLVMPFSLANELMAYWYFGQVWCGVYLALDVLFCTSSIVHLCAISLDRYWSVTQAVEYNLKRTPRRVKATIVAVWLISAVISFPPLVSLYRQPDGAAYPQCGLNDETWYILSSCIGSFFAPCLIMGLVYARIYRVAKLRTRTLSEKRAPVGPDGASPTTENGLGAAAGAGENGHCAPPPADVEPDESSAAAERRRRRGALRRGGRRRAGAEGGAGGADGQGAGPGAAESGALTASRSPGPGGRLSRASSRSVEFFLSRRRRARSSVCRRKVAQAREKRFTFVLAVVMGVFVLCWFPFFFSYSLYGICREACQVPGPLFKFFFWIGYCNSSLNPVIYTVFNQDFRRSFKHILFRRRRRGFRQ
protocol-notes: In vitro activity assay to determine the inhibition of recombinant ADRA2C (CHO-K1 cells, aequorin bioluminescence)
Type: cell-based
study-conditions: inhibition of noradrenaline-induced bioluminescence signal; some mean values from multiple determinations; read-out: ARα2C IC50
Quick reminder: number only, in nM, skip the unit.

Could you share which IC50 value was measured for C[C@@H]1CCCN(C2CCN(c3ncc(C(=O)N(C)Cc4ccncc4)s3)CC2)C1 [Example 91] ? 284

Could you share which IC50 value was measured for O=C(NCc1ncc(F)cc1F)c1cnc(N2CCC(N3CCCC(COCC4CC4)C3)CC2)s1 (single isomer, unassigned; ent-2) [Example 115] ? 0.61

Could you share which IC50 value was measured for COCC1CCCN(C2CCN(c3ncc(C(=O)NCc4ncc(F)cc4F)s3)CC2)C1 (single isomer, unassigned) [Example 100] ? 2.9

Could you share which IC50 value was measured for C[C@@H]1CCCN(C2CCN(c3nc(C4CC4)c(C(=O)NCc4ncc(F)cc4F)s3)CC2)C1 [Example 122] ? 13

----------
target-desc: human ADRA2C receptor (Homo sapiens (Human))
protocol-notes: In vitro activity assay to determine the inhibition of recombinant ADRA2C (CHO-K1 cells, aequorin bioluminescence)
Format: cell-based
study-conditions: inhibition of noradrenaline-induced bioluminescence signal; some mean values from multiple determinations; read-out: ARα2C IC50
readout-type: IC50
Field: value (include unit after the number)

Could you share which IC50 value was measured for CC(NC(=O)c1cnc(N2CCC(N3CCC[C@@H](C)C3)CC2)s1)c1ncc(F)cc1F (mixture of isomers) ? 150 nM

Could you share which IC50 value was measured for "O=C(NCc1ncc(F)cc1F)c1cnc(N2CCC(N3CCC[C@@H](C(F)F)C3)CC2)s1" ? 135 nM

Could you share which IC50 value was measured for O=C(NCc1ncc(F)cc1F)c1cnc(N2CCC(N3CCCC(COCC(F)(F)F)C3)CC2)s1 (single isomer, unassigned) [Example 107] ? 37 nM

Could you share which IC50 value was measured for O=C(NCc1ncc(F)cc1F)c1cnc(N2CCC(N3CCCC(COCC(F)(F)F)C3)CC2)s1 (single isomer, unassigned) [Example 106] ? 0.5 nM

Could you share which IC50 value was measured for "C[C@@H]1CCCN(C2CCN(c3ncc(C(=O)N(C)Cc4cccnc4)s3)CC2)C1" ? 97 nM

Could you share which IC50 value was measured for "CC1(C)CCCN(C2CCN(c3ncc(C(=O)NCc4ncc(F)cc4F)s3)CC2)C1" ? 570 nM

Could you share which IC50 value was measured for O=C(NCc1ncc(F)cc1F)c1cnc(N2CCC(N3CCCC(OCC(F)(F)F)C3)CC2)s1 (racemic) ? 640 nM

----------
Record form. Attribute: pIC50. Fill in for each entry.
target-desc: UniProt:P18825
protocol-notes: In vitro activity assay to determine the inhibition of recombinant ADRA2C (CHO-K1 cells, aequorin bioluminescence)
Assay type: cell-based
study-conditions: inhibition of noradrenaline-induced bioluminescence signal; some mean values from multiple determinations; read-out: ARα2C IC50
Convention used: pIC50 is expressed as -log10 of the molar concentration.

Could you share which pIC50 value was measured for O=C(NCc1ncc(F)cc1F)c1cnc(N2CCC(N3CCCC(OC4CCC4)C3)CC2)s1 (racemic) [Example 109] ? 9.07

Could you share which pIC50 value was measured for C[C@@H]1CCCN(C2CCN(c3ncc(C(=O)NCc4cccc(F)c4)s3)CC2)C1 [Example 86] ? 7.55

Could you share which pIC50 value was measured for Cc1ccc(CNC(=O)c2cnc(N3CCC(N4CCC[C@@H](C)C4)CC3)s2)cn1 [Example 72] ? 6.74

Could you share which pIC50 value was measured for O=C(NCc1ncc(F)cc1F)c1cnc(N2CCC(N3CCCC(C(F)(F)F)C3)CC2)s1 (racemic) [Example 5] ? 6.47

----------
target-desc: human ADRA2C receptor (Homo sapiens (Human))
protocol-notes: In vitro activity assay to determine the inhibition of recombinant ADRA2C (CHO-K1 cells, aequorin bioluminescence)
Type: cell-based
study-conditions: inhibition of noradrenaline-induced bioluminescence signal; some mean values from multiple determinations; read-out: ARα2C IC50
hey, just use criterion met if measured IC50 is less than 0.002 µM, otherwise criterion not met

Take the molecule "O=C(NCc1ncc(F)cc1F)c1cnc(N2CCC(N3CCCCC3)CC2)s1" and say whether its IC50 is less than 0.002 µM. criterion not met

Take the molecule "C[C@@H]1CCCN(C2CCN(c3ncc(C(=O)NCc4ccc(C(F)(F)F)cc4)s3)CC2)C1" and say whether its IC50 is less than 0.002 µM. criterion not met

Take the molecule C[C@@H]1CCCN(C2CCCN(c3ncc(C(=O)NCc4ncc(F)cc4F)s3)CC2)C1 (some centres unmarked) and say whether its IC50 is less than 0.002 µM. criterion not met

Take the molecule "C[C@@H]1CCCN(C2CCN(c3ncc(C(=O)NCc4ccc(F)s4)s3)CC2)C1" and say whether its IC50 is less than 0.002 µM. criterion not met

Take the molecule "O=C(NCc1ncc(F)cc1F)c1cnc(N2CCC(N3CCc4cccc(F)c4C3)CC2)s1" and say whether its IC50 is less than 0.002 µM. criterion met

Take the molecule "O=C(NCc1ncc(F)cc1F)c1cnc(N2CCC(N3CCC[C@@H](OCC4CC4)C3)CC2)s1" and say whether its IC50 is less than 0.002 µM. criterion met

Take the molecule "CCc1cc(NC(=O)c2cnc(N3CCC(N4CCC[C@@H](C)C4)CC3)s2)ccn1" and say whether its IC50 is less than 0.002 µM. criterion not met

Take the molecule C[C@@H]1CCCN(C2CCN(c3nc(C(=O)NCc4ncc(F)cc4F)cs3)CC2F)C1 (mixture of isomers) and say whether its IC50 is less than 0.002 µM. criterion met

----------
target-desc: human ADRA2C receptor (Homo sapiens (Human), UniProt P18825)
protocol-notes: In vitro activity assay to determine the inhibition of recombinant ADRA2C (CHO-K1 cells, aequorin bioluminescence)
Type: cell-based
study-conditions: inhibition of noradrenaline-induced bioluminescence signal; some mean values from multiple determinations; read-out: ARα2C IC50
readout-type: IC50

Could you share which IC50 value was measured for CCOC1CCCN(C2CCN(c3ncc(C(=O)NCc4ncc(F)cc4F)s3)CC2)C1 (racemic) [Example 70] ? 22 nM

Could you share which IC50 value was measured for O=C(NCc1ncc(F)cc1F)c1cnc(N2CCC(N3CCCC(COCC4CC(F)(F)C4)C3)CC2)s1 (racemic) ? 345 nM

Could you share which IC50 value was measured for "O=C(NCc1ncc(F)cc1F)c1cnc(N2CCC(N3CCc4cccc(Cl)c4C3)CC2)s1" ? 8.7 nM

Could you share which IC50 value was measured for O=C(NCc1ncc(F)cc1F)c1cnc(N2CCC(N3CCCC(COCC(F)(F)F)C3)CC2)s1 (racemic) [Example 59] ? 11 nM

Could you share which IC50 value was measured for CCC1CCCN(C2CCN(c3ncc(C(=O)NCc4ncc(F)cc4F)s3)CC2)C1 (racemic) ? 26.5 nM

Could you share which IC50 value was measured for CC1CCCN(C2CCN(c3ncc(C(=O)NCc4ncc(F)cc4F)s3)CC2)CC1 (single isomer, unassigned) [Example 105] ? 4.3 nM

Could you share which IC50 value was measured for CC(CNC(=O)c1cnc(N2CCC(N3CCC[C@@H](C)C3)CC2)s1)c1ccccc1 (stereo partly drawn) ? 98.1 nM

Could you share which IC50 value was measured for "C[C@@H]1CCCN(C2CCN(c3ncc(C(=O)NCc4cccc(C(F)(F)F)c4)s3)CC2)C1" ? 690 nM

Could you share which IC50 value was measured for O=C(NCc1ncc(F)cc1F)c1cnc(N2CCC(N3CCCC(OCC4CC(F)(F)C4)C3)CC2)s1 (racemic) ? 49.6 nM

Could you share which IC50 value was measured for C[C@@H]1CCCN(C2CCN(c3ncc(C(=O)NCc4cc(Cl)ccc4F)s3)CC2F)C1 (mixture of isomers) ? 0.61 nM

Could you share which IC50 value was measured for "O=C(NCc1ncc(F)cc1F)c1cnc(N2CCC(N3CCc4ccccc4C3)CC2)s1" ? 5.2 nM

Could you share which IC50 value was measured for COCC1CCCN(C2CCN(c3ncc(C(=O)NCc4ncc(F)cc4F)s3)CC2)C1 (racemic) [Example 48] ? 17 nM

Could you share which IC50 value was measured for "C[C@@H]1CCCN(C2CCN(c3ncc(C(=O)NCc4cccc(O)c4)s3)CC2)C1" ? 102 nM

Could you share which IC50 value was measured for "C[C@@H]1CCCN(C2CCN(c3ncc(C(=O)NCc4cc(Cl)ccc4F)s3)CC2)C1" ? 7.2 nM

Could you share which IC50 value was measured for CC(NC(=O)c1cnc(N2CCC(N3CCC[C@@H](C)C3)CC2)s1)c1cc(F)ccc1F (single isomer, unassigned) [Example 46] ? 8.3 nM

Could you share which IC50 value was measured for "C[C@@H]1CCCN(C2CCN(c3ncc(C(=O)NCc4ccccc4Cl)s3)CC2)C1" ? 170 nM

Could you share which IC50 value was measured for "C[C@@H]1CCCN(C2CCN(c3ncc(C(=O)NCc4cccc(C(F)(F)F)n4)s3)CC2)C1" ? 890 nM

Could you share which IC50 value was measured for CC(NC(=O)c1cnc(N2CCC(N3CCC[C@@H](C)C3)CC2)s1)c1cc(F)ccc1F (single isomer, unassigned) [Example 47] ? 25 nM

Could you share which IC50 value was measured for O=C(NCc1ncc(F)cc1F)c1cnc(N2CCC(N3CCCC(COCC4(C(F)(F)F)CC4)C3)CC2)s1 (racemic) ? 130 nM

Could you share which IC50 value was measured for CC(F)CCOCC1CCCN(C2CCN(c3ncc(C(=O)NCc4ncc(F)cc4F)s3)CC2)C1 (stereo not drawn) ? 285 nM

Could you share which IC50 value was measured for "C[C@@H]1CCCN(C2CCN(c3ncc(C(=O)NCc4ccc(Cl)cn4)s3)CC2)C1" ? 96 nM

Could you share which IC50 value was measured for O=C(NCc1ncc(F)cc1F)c1cnc(N2CCC(N3CCCC(COCC4CC4)C3)CC2)s1 (single isomer, unassigned; ent-2) [Example 116] ? 11 nM

Could you share which IC50 value was measured for CC(NC(=O)c1cnc(N2CCC(N3CCC[C@@H](C)C3)C(F)C2)s1)c1cc(F)ccc1F (mixture of isomers) ? 0.65 nM

Could you share which IC50 value was measured for O=C(NCc1ncc(F)cc1F)c1cnc(N2CCC(N3CCCC(COCC4CC4)C3)CC2)s1 (racemic) [Example 69] ? 5.5 nM

Could you share which IC50 value was measured for "Cc1ccccc1CNC(=O)c1cnc(N2CCC(N3CCC[C@@H](C)C3)CC2)s1" ? 200 nM

Could you share which IC50 value was measured for "Cc1ccc2c(c1)CCN(C1CCN(c3ncc(C(=O)NCc4ncc(F)cc4F)s3)CC1)C2" ? 1.72 nM

Could you share which IC50 value was measured for "O=C(NCc1ncc(F)cc1F)c1cnc(N2CCC(N3CCC[C@H](C(F)F)C3)CC2)s1" ? 2340 nM

Could you share which IC50 value was measured for "C[C@@H]1CCCN(C2CCN(c3ncc(C(=O)NCc4ncc(Cl)cc4F)s3)CC2)C1" ? 17 nM

Could you share which IC50 value was measured for CC1CCCN(C2CCN(c3ncc(C(=O)NCc4ncc(F)cc4F)s3)CC2)CC1 (racemic) [Example 53] ? 110 nM

Could you share which IC50 value was measured for O=C(NCc1ncc(F)cc1F)c1cnc(N2CCC(N3CCCC(CC4CC4)C3)CC2)s1 (racemic) ? 2.9 nM
